Target: T1, mouse TREM2 (mouse, UniProt Q99NH8 19-227)
T1 construct: whole, on cells
T1 sequence (looked up): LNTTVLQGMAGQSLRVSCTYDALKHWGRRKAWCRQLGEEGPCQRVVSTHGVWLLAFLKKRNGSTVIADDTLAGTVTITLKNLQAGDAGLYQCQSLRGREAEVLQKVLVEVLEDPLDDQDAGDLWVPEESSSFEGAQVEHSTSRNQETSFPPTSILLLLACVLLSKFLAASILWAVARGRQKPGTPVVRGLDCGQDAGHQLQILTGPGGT
Assay: MFI on CT26 cells over-expressing mouse TREM2 and DAP12 vs CT26 empty vector
assay.endpoint: MFI Fold change (CT26-TREM2 over CT26-EV) (fold)
Please give a number only; it is taken to be in fold.

## Task Specify reported MFI Fold change (CT26-TREM2 over CT26-EV) for the binder shown: EOS006164 (antibody, V domains shown) VH: EVQLVESGGGLVQPGRSLRLSCTASGFTFDDYTMSWFRQAPGKGLEWVGFIGSKAYSATTEYTASVKGRFTISRDGSKSIAYLQMNSLKTEDTAVYYCARGKRYSYTYWTPAFDVWGQGTMVTVSS VL: DIQMTQSPSSLSASVGDRVTITCQASQDITNYLNWYQQKPGKAPKLLIYDASNLETGVPSRFSGSGSGTDFTFTISSLQPEDIATYYCQEYDSYITFGGGTKVEIK
## Result 21.4
